- Tested on: 782815-120-R-J1-PDC complex spheroid viability
- assay_comment: Anticancer human tumor 782815-120-R-J1-PDC patient-derived colon adenocarcinoma cell line growth inhibition [RAS]; active = viability on the fitted dose curve at most 10% of control; inactive = the rest
- assay_setup: second compound 0.003 µM; first compound 10 µM
Assign a class; possible classes are active, inactive

# count of solved cases: 4
1) CCC(CC)c1cc(NC2CCC(N)C2)n2nccc2n1 (stereo not given) + CCn1c(-c2cc(N3CCN(C)CC3)cnc2C(C)OC)c2c3cc(ccc31)-c1csc(n1)CC(NC(=O)C1CC1C)C(=O)N1CCCC(N1)C(=O)OCC(C)(C)C2; active
2) CC(C)NCC(C(=O)N1CCN(c2ncnc3c2C(C)CC3O)CC1)c1ccc(Cl)cc1 (stereo not given) + CCn1c(-c2cccnc2C(C)OC)c2c3cc(ccc31)N1CCOC(CC(NC(=O)C(C(C)C)N(C)C(=O)C3(F)CCN(C(=O)C#CC(C)(C)N(C)C)CC3)C(=O)N3CCCC(N3)C(=O)OCC(C)(C)C2)C1; inactive
3) CC(=O)OC12COC1CC(O)C1(C)C(=O)C(O)C3=C(C)C(OC(=O)C(O)C(NC(=O)OC(C)(C)C)c4ccccc4)CC(O)(C(OC(=O)c4ccccc4)C21)C3(C)C (stereo not given) + CCn1c(-c2cccnc2C(C)OC)c2c3cc(ccc31)N1CCOC(CC(NC(=O)C(C(C)C)N(C)C(=O)C3(F)CCN(C(=O)C#CC(C)(C)N(C)C)CC3)C(=O)N3CCCC(N3)C(=O)OCC(C)(C)C2)C1; inactive
4) CC(C)NCC(C(=O)N1CCN(c2ncnc3c2C(C)CC3O)CC1)c1ccc(Cl)cc1 (stereo not given) + CCn1c(-c2cc(N3CCN(C)CC3)cnc2C(C)OC)c2c3cc(ccc31)-c1csc(n1)CC(NC(=O)C1CC1C)C(=O)N1CCCC(N1)C(=O)OCC(C)(C)C2; inactive

Dear all, I need the recorded test outcome for CCC(CC)c1cc(NC2CCC(N)C2)n2nccc2n1 (stereo not given) + CCn1c(-c2cccnc2C(C)OC)c2c3cc(ccc31)N1CCOC(CC(NC(=O)C(C(C)C)N(C)C(=O)C3(F)CCN(C(=O)C#CC(C)(C)N(C)C)CC3)C(=O)N3CCCC(N3)C(=O)OCC(C)(C)C2)C1 , thank you.
active

----------
Measured viability, T/C accompanies every entry in the list below.
- Tested on: 782815-120-R-J1-PDC complex spheroid viability
- assay_comment: Anticancer human tumor 782815-120-R-J1-PDC cell line growth inhibition [RAS];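 note: spheroids exposed to compounds for 7 days before reading; 100% = DMSO vehicle control viability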
- assay_setup: second compound 0.1 µM; first compound 0.1 µM; active compounds read low
The figure you give is taken to be in %; do not add the unit.

Solved cases (5 shown):
1) Nc1ccn(C2OC(CO)C(O)C2(F)F)c(=O)n1 (stereo not drawn) + C#Cc1c(F)ccc2cc(O)cc(-c3ncc4c(N5CC6CCC(C5)N6)nc(OCC56CCCN5CC(F)C6)nc4c3F)c12; 47.8
2) Cc1nc(N2CCC3(CC2)COC(C)C3N)c(CO)nc1Sc1ccnc(N)c1Cl (stereo not drawn) + C#Cc1c(F)ccc2cc(O)cc(-c3ncc4c(N5CC6CCC(C5)N6)nc(OCC56CCCN5CC(F)C6)nc4c3F)c12; 109
3) CCN1CCN(Cc2ccc(Nc3ncc(F)c(-c4cc(F)c5nc(C)n(C(C)C)c5c4)n3)nc2)CC1 + C=CC(=O)N1CCN(c2nc(OCC3CCCN3C)nc3c(F)c(-c4nc(N)cc(C)c4C(F)(F)F)c(Cl)cc23)C(C)C1; 103
4) CC1(O)CCCC1n1c(=O)c(C(F)F)cc2cnc(NC3CCN(S(C)(=O)=O)CC3)nc21 (stereo not drawn) + C=CC(=O)N1CCN(c2nc(OCC3CCCN3C)nc3c(F)c(-c4nc(N)cc(C)c4C(F)(F)F)c(Cl)cc23)C(C)C1; 50.7
5) C=CC(=O)Nc1cc(Nc2nccc(-c3cn(C)c4ccccc34)n2)c(OC)cc1N(C)CCN(C)C + C#Cc1c(F)ccc2cc(O)cc(-c3ncc4c(N5CC6CCC(C5)N6)nc(OCC56CCCN5CC(F)C6)nc4c3F)c12; 93.6

Check the records and state viability, T/C for CCC(CC)c1cc(NC2CCC(N)C2)n2nccc2n1 (stereo not drawn) + C#Cc1c(F)ccc2cc(O)cc(-c3ncc4c(N5CC6CCC(C5)N6)nc(OCC56CCCN5CC(F)C6)nc4c3F)c12
103

Check the records and state viability, T/C for CC(C)NCC(C(=O)N1CCN(c2ncnc3c2C(C)CC3O)CC1)c1ccc(Cl)cc1 (stereo not drawn) + C#Cc1c(F)ccc2cc(O)cc(-c3ncc4c(N5CC6CCC(C5)N6)nc(OCC56CCCN5CC(F)C6)nc4c3F)c12
104

Check the records and state viability, T/C for CC1(O)CCCC1n1c(=O)c(C(F)F)cc2cnc(NC3CCN(S(C)(=O)=O)CC3)nc21 (stereo not drawn) + C#Cc1c(F)ccc2cc(O)cc(-c3ncc4c(N5CC6CCC(C5)N6)nc(OCC56CCCN5CC(F)C6)nc4c3F)c12
75.2
